The reported numbers originate from patent US20230116733A1.

Reported Cell viability (% of Con. 10 μM) HepG2 values for a set of compounds
- Test system: HepG2
- assay-remarks: Assay for anticancer activity, cell viability (Cell Counting Kit-8)
- Assay type: cell-based
- cond: HepG2 cells, 10 μM compound, 3 days
- Protocol: Assay for anticancer activity was conducted as follows. Corresponding cancer cells were seeded at a density of 4,000 cells/well into 96-well plates and stabilized for 24 hours. Thereafter, the cells in each well were treated with 10 μM of the each of the compounds for 3 days. Then, cell viability was assayed using Cell Counting Kit-8 from Dojindo.
Where a name gives a salt, the structure may show the parent alone.

response.value for O=C(Nc1ccncc1)c1n[nH]c2ccc(-c3cnn(C4CCNCC4)c3)cc12 [Compound 73, hydrochloride] (field: Cell viability (% of Con. 10 μM) HepG2) = 36 % of Con.

response.value for CC1(C)Cc2ccc(NC(=O)c3n[nH]c4ccc(-c5cccnc5F)cc34)cc2CN1 (field: Cell viability (% of Con. 10 μM) HepG2) = 9 % of Con.

response.value for Cn1ncc2c(NC(=O)c3n[nH]c4ccc(-c5cccnc5F)cc34)ccnc21 (field: Cell viability (% of Con. 10 μM) HepG2) = 28 % of Con.

###

- study-system: UniProt:Q92519
- Sequence (Q92519 1-343): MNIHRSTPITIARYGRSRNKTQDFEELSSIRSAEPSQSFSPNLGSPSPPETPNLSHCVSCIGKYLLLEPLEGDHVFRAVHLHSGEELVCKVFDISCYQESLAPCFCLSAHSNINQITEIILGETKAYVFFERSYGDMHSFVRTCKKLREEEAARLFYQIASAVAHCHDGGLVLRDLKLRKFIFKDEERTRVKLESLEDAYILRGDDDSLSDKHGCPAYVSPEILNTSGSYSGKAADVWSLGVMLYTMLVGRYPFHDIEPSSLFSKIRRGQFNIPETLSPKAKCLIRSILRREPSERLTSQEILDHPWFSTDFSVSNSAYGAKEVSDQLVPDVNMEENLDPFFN
- assay-remarks: TRIB2 kinase activity assay (Eurofins, 33P-ATP filter binding)
- Type: biochemical
- Design: purchased Eurofins
- cond: human TRIB2, 15 μM gamma-33P-ATP, 120 minutes at room temperature; read-out: TRIB2 Kimase activity assay IC50
Structures can show the parent of a compound that is named as a salt.
measurement-name: IC50

O=C(N[C@H]1CC[C@H](O)CC1)c1n[nH]c2ccc(-c3cccnc3F)cc12 : 100 to 1000 nM
CCCn1cc(-c2ccc3[nH]nc(C(=O)Nc4ccncc4)c3c2)cn1 : 1 to 10 nM
O=C(NC1CCN(C(=O)C2CC2)CC1)c1nn(C(=O)C2CC2)c2ccc(-c3cccnc3F)cc12 : 100 to 1000 nM
CC(C)n1cc(-c2ccc3[nH]nc(C(=O)Nc4ccncc4)c3c2)cn1 : 10 to 100 nM
O=C(Nc1ccc2c(c1)CN(C(=O)C(F)(F)F)CC2)c1n[nH]c2ccc(-c3cccnc3F)cc12 : 1 to 10 nM

response.value for O=C(Nc1ccncc1)c1n[nH]c2ccc(-c3ccoc3)cc12 (field: IC50) = 10 to 100 nM

response.value for O=C(Nc1ccc2c(c1)CNCC2)c1n[nH]c2ccc(-c3cccnc3F)cc12 [Compound 55, hydrochloride] (field: IC50) = 1 to 10 nM

response.value for N[C@H]1CC[C@H](NC(=O)c2n[nH]c3ccc(-c4cccnc4F)cc23)CC1 (field: IC50) = 100 to 1000 nM

###

Reported Cell viability (% of Con. 10 μM) A549 values for a set of molecules
- Test system: A549
- assay-remarks: Assay for anticancer activity, cell viability (Cell Counting Kit-8)
- Format: cell-based
- cond: A549 cells, 10 μM compound, 3 days
Counter-ions that a name gives are not always drawn.

# count of solved cases: 5
O=C(NCc1ccncc1)c1n[nH]c2ccc(-c3cccnc3F)cc12 : 44 % of Con.
O=C(Nc1ccncc1)c1n[nH]c2ccc(-c3cn[nH]c3)cc12 : 30 % of Con.
O=C(Nc1ccc2c(c1)CNCC2)c1n[nH]c2ccc(-c3cccnc3F)cc12 [Compound 55, hydrochloride] : 10 % of Con.
CCCn1cc(-c2ccc3[nH]nc(C(=O)Nc4ccncc4)c3c2)cn1 : 28 % of Con.
CC1NCCc2ccc(NC(=O)c3n[nH]c4ccc(-c5cccnc5F)cc34)cc21 (centres unmarked) : 4 % of Con.

response.value for Cn1cc(-c2ccc3[nH]nc(C(=O)Nc4ccncc4)c3c2)cn1 (field: Cell viability (% of Con. 10 μM) A549) = 31 % of Con.

response.value for O=C(Nc1ccncc1)c1n[nH]c2ccc(-c3ccc(N4CCNCC4)cc3)cc12 [Compound 46, hydrochloride] (field: Cell viability (% of Con. 10 μM) A549) = 58 % of Con.

response.value for O=C(Nc1ccncc1)c1nn(C2CCCCO2)c2ccc(-c3cccnc3F)cc12 (centres unmarked) (field: Cell viability (% of Con. 10 μM) A549) = 55 % of Con.

response.value for O=C(Nc1ccncc1)c1n[nH]c2ccc(-c3cccnc3F)cc12 (field: Cell viability (% of Con. 10 μM) A549) = 17 % of Con.

response.value for O=C(Nc1ccc2c(c1)CCNC2)c1n[nH]c2ccc(-c3cccnc3F)cc12 (field: Cell viability (% of Con. 10 μM) A549) = 8 % of Con.

response.value for O=C(Nc1ccncc1)c1n[nH]c2ccc(-c3ccoc3)cc12 (field: Cell viability (% of Con. 10 μM) A549) = 51 % of Con.

###

- Tested on: HepG2
- assay-remarks: Assay for anticancer activity, cell viability (Cell Counting Kit-8)
- Format: cell-based
- cond: HepG2 cells, 10 μM compound, 3 days
Reported Cell viability (% of Con. 10 μM) HepG2 values for a set of molecules

O=C(Nc1ccc2c(c1)CCNC2)c1n[nH]c2ccc(-c3cccnc3F)cc12 : 7 % of Con.
CC(C)n1cc(-c2ccc3[nH]nc(C(=O)Nc4ccncc4)c3c2)cn1 : 16 % of Con.
O=C(Nc1ccc2c(c1)CN(C(=O)C(F)(F)F)CC2)c1n[nH]c2ccc(-c3cccnc3F)cc12 : 10 % of Con.
O=Cc1ccc(-c2ccc3[nH]nc(C(=O)Nc4ccncc4)c3c2)o1 : 32 % of Con.

Next, consider the following molecule.
response.value for Cn1cc(-c2ccc3[nH]nc(C(=O)Nc4ccncc4)c3c2)cn1 (field: Cell viability (% of Con. 10 μM) HepG2) = 16 % of Con.
